# conditions: 328.15 K; 101.33 kPa; Liquid; Vibrating tube method
measured_metric: mass density (kg/m3)

>  <compound>
CCCCCCCC[P+](CCCCCCCC)(CCCCCCCC)CCCCCCCC.[Br-] [tetraoctylphosphonium bromide]

>  <mass density (kg/m3)>
938.9

$$$$
>  <compound>
CCCC[P+](CC)(CCCC)CCCC.CCOP(=O)([O-])OCC [tributylethylphosphonium diethylphosphate]

>  <mass density (kg/m3)>
990.9

$$$$
>  <compound>
CCCC[P+](C)(CCCC)CCCC.COS(=O)(=O)[O-] [tributylmethylphosphonium methyl sulfate]

>  <mass density (kg/m3)>
1048.9

$$$$
>  <compound>
CC(C)C[P+](C)(CC(C)C)CC(C)C.Cc1ccc(S(=O)(=O)[O-])cc1 [triisobutylmethylphosphonium p-toluenesulfonate]

>  <mass density (kg/m3)>
1054.7

$$$$
